assay: In vitro rat microsomal stability assay; format: in vitro ADME, rat (Sprague-Dawley); conditions: Sprague-Dawley, rat, microsomes, 0.5 h, 0.5 μM, pH 7.4
For each record, check the reported RAT MICROSOMAL STABILITY (% REMAINING AFTER 30 MINUTES): if it is below 60% write rule met, else write rule not met.

For OC(C1CCc2cccnc21)C1(c2ccc(F)c(F)c2)CCC1 (centres unmarked) [Example 171] , is the recorded RAT MICROSOMAL STABILITY (% REMAINING AFTER 30 MINUTES) below the cut-off of 60%?
rule met

For OC1CC(c2ccc(Cl)c(Cl)c2)(C(O)c2ccccn2)C1 (single isomer, unassigned) [Example 119] , is the recorded RAT MICROSOMAL STABILITY (% REMAINING AFTER 30 MINUTES) below the cut-off of 60%?
rule not met

For OC1CC(c2ccc(C(F)(F)F)cc2)([C@@H](O)c2ccccn2)C1 (mixture of isomers) [Example 199] , is the recorded RAT MICROSOMAL STABILITY (% REMAINING AFTER 30 MINUTES) below the cut-off of 60%?
rule not met

For Cn1c(C2(C(O)c3ccccn3)CCC2)nc2ccccc21 (centres unmarked) [Example 275] , is the recorded RAT MICROSOMAL STABILITY (% REMAINING AFTER 30 MINUTES) below the cut-off of 60%?
rule met

For OC(c1ccccn1)C1(c2cccc(C(F)(F)F)n2)CCC1 (centres unmarked) [Example 234] , is the recorded RAT MICROSOMAL STABILITY (% REMAINING AFTER 30 MINUTES) below the cut-off of 60%?
rule met

###

Some compounds, each annotated with its measured RAT MICROSOMAL STABILITY (% REMAINING AFTER 30 MINUTES).
test: In vitro rat microsomal stability assay; type: in vitro ADME, rat (Sprague-Dawley); conditions: Sprague-Dawley, rat, microsomes, 0.5 h, 0.5 μM, pH 7.4
Write the number in % without appending the unit.

Below, each entry is followed by its recorded RAT MICROSOMAL STABILITY (% REMAINING AFTER 30 MINUTES) result.
Need RAT MICROSOMAL STABILITY (% REMAINING AFTER 30 MINUTES), item CC1(O)CC(c2ccc(C(F)(F)F)cc2)(C(O)c2ccccn2)C1 (single isomer, unassigned) [Example 233]
67

Need RAT MICROSOMAL STABILITY (% REMAINING AFTER 30 MINUTES), item OC(c1ccccn1)C1(Cc2cccc(F)c2)CCC1 (stereo not shown)
0.57

Need RAT MICROSOMAL STABILITY (% REMAINING AFTER 30 MINUTES), item OC(c1ccccn1)C1(c2ccc(OC(F)(F)F)cc2)CCNCC1 (stereo not shown)
51

Need RAT MICROSOMAL STABILITY (% REMAINING AFTER 30 MINUTES), item "N[C@@H]1CCC[C@H]1[C@@H](O)C1(c2cccc(C(F)(F)F)c2)CCC1"
42

Next:
Need RAT MICROSOMAL STABILITY (% REMAINING AFTER 30 MINUTES), item OC(c1ccccn1)C1(c2ccc(F)cc2)CCC1 (stereo not shown)
3.8

Need RAT MICROSOMAL STABILITY (% REMAINING AFTER 30 MINUTES), item OC(c1ccccn1)C1(c2cc(C(F)(F)F)ccn2)CCC1 (stereo not shown)
25

Need RAT MICROSOMAL STABILITY (% REMAINING AFTER 30 MINUTES), item OC1CC(c2cncc(C(F)(F)F)c2)(C(O)c2ccccn2)C1 (stereo not shown) [Example 303]
32

Need RAT MICROSOMAL STABILITY (% REMAINING AFTER 30 MINUTES), item OC(c1ccccn1)C1(c2ccc(Cl)c(Cl)c2)CCCO1 (single isomer, unassigned) [Example 99]
0.17
